system: WiDr; test: Tested for inhibitory activity against a multi drug resistant (MDR) strain of human colon carcinoma WiDr using sulforhodamine B assay (it is MRP positive but non-P-glycoprotein).; format: functional, cell-based
Assay readout: IC50 (nM)
Please give a number only; it is taken to be in nM.

Record CN(C)CCN1C(=O)c2cccc3c2c(cc2cccc(N)c23)C1=O . Reported IC50: 460

Consider COc1cccc2c1cc1c3c(cccc32)C(=O)N(CCN(C)C)C1=O . Its measured IC50 is 1300

IC50 reported for this compound CN(C)CCN1C(=O)c2cccc3c2c(cc2cccc(Cl)c23)C1=O : 380

In plain terms, CN(C)CCN1C(=O)c2cccc3c2c(cc2c(Cl)cccc23)C1=O has a documented IC50 of 110

# IC50 (compound: CC(=O)Nc1ccc2c3c(cc4cccnc42)C(=O)N(CCN(C)C)C(=O)c13 ) is 195

Recorded IC50 (compound CN(C)CCN1C(=O)c2c(NC(=O)C(C)(C)C)ccc3cc4c(c(c23)C1=O)CCCC4 ): 800

Consider CN(C)CCN1C(=O)c2cc3cccnc3c3ccc(N)c(c23)C1=O . Its measured IC50 is 210
